# Tested on: HeLa
# assay_summary: Antiproliferative activity against human HeLa cells assessed as inhibition of cell proliferation incubated for 48 hrs by MTT assay
# Type: functional, cell-based
For each of the molecules below, state its IC50.
I only need the number, in nM, no unit after it.

Lab note: `COc1cc(OC)cc(-c2nccc3[nH]c(-c4cccc5c4ccn5C)nc23)c1` gave IC50 of 105

Lab note: `Cn1ccc2c(-c3nc4c(-c5ccc6c(c5)OCCO6)nccc4[nH]3)cccc21` gave IC50 of 92

Lab note: `COc1cc(-c2n[nH]c3ccc(-c4ccc(C)cc4)nc23)cc(OC)c1OC` gave IC50 of 92

Lab note: `COc1cc(-c2n[nH]c3cnc(-c4cccc5c4ccn5C)cc23)cc(OC)c1OC` gave IC50 of 154

Lab note: `COc1cc(-c2nccc3[nH]c(-c4ccc5c(ccn5C)c4)nc23)cc(OC)c1OC` gave IC50 of 71
